# Test system: 885512-296-R-J2-PDC complex spheroid viability;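 note: spheroids exposed to the compounds for one week; percent of tumor spheroid viability relative to DMSO vehicle control wells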
# methodDescription: Anticancer human tumor 885512-296-R-J2-PDC patient-derived breast carcinoma cell line growth inhibition [GQUAD]
# experimentalParameters: second compound 1 µM; first compound 0.0316 µM; stronger effect = lower value
readoutLabel: viability, T/C (%)
Only the number, expressed in %, is required.

Measured viability, T/C of C#Cc1c(F)ccc2cc(O)cc(-c3ncc4c(N5CC6CCC(C5)N6)nc(OCC56CCCN5CC(F)C6)nc4c3F)c12 (stereo not drawn) + CN(C)c1ccc(Nc2c3ccc(NC(=O)CCN4CCCC4)cc3nc3cc(NC(=O)CCN4CCCC4)ccc23)cc1 : 88.9

The recorded viability, T/C for entry CC1COCCN1c1cc(C2(O)CC3CCC(C2)O3)c2cnn(-c3ccn[nH]3)c2n1 (stereo not drawn) + Cc1cnc(CNC(=O)c2c(=O)c3ccc(N4CCCN(C)CC4)nc3n3c2sc2ccccc23)cn1 equals 6.13

Please fill in: viability, T/C reported for C#Cc1c(F)ccc2cc(O)cc(-c3ncc4c(N5CC6CCC(C5)N6)nc(OCC56CCCN5CC(F)C6)nc4c3F)c12 (stereo not drawn) + Cc1cnc(CNC(=O)c2c(=O)c3ccc(N4CCCN(C)CC4)nc3n3c2sc2ccccc23)cn1 = 24.9
